- assay-procedure: MTT cell viability assay, Hep G2 cells (serum-free DMEM)
- test-conditions: human, Hep G2 cells, Cell viability, lovastatin 50 μM 48 hr, then no taxol 48 hr
quantity-kind: viability at 48 h, 50 μM

[[record]]
sample_smiles = "CC[C@H](C)C(=O)O[C@H]1C[C@@H](C)C=C2C=C[C@H](C)[C@H](CC[C@@H]3C[C@@H](O)CC(=O)O3)[C@H]21"
quantity_kind = "viability at 48 h, 50 μM"
reading = "14.6%"


---

- assay-procedure: MTT cell viability assay, Hep G2 cells (serum-free DMEM)
- test-conditions: human, Hep G2 cells, Cell viability, taxol 200 nM, 72 hr
quantity-kind: viability at 72 h, 200 nM

[[record]]
sample_smiles = "CC(=O)O[C@H]1C(=O)[C@@]2(C)[C@H]([C@H](OC(=O)c3ccccc3)[C@]3(O)C[C@H](OC(=O)[C@H](O)[C@@H](NC(=O)c4ccccc4)c4ccccc4)C(C)=C1C3(C)C)[C@]1(OC(C)=O)CO[C@@H]1C[C@@H]2O"
quantity_kind = "viability at 72 h, 200 nM"
reading = "15.6%"


Recorded values, source patent US20020173538A1.
